system: Streptococcus pneumoniae ATCC 6303 LRP 35; assay: Minimum bactericidal concentration (MBC); assay type: cell-based
property: MBC/MIC
Answers are plain numbers.

For CC[C@H]1OC(=O)[C@H](C)[C@@H](O[C@H]2C[C@@](C)(OC)[C@@H](O)[C@H](C)O2)[C@H](C)[C@@H](O[C@@H]2O[C@H](C)C[C@H](N(C)C)[C@H]2O)[C@](C)(O)C[C@](C)(F)C(=O)[C@H](C)[C@@H](O)[C@]1(C)O the compound record lists MBC/MIC as 4

MBC/MIC reported for this compound CC[C@H]1OC(=O)[C@H](C)[C@@H](O[C@H]2C[C@H](OC)[C@@H](O)[C@H](C)O2)[C@H](C)[C@@H](O[C@@H]2O[C@H](C)C[C@H](N(C)C)[C@H]2O)[C@](C)(O)C[C@](C)(F)C(=O)[C@H](C)[C@@H](O)[C@]1(C)O : 2

# next compound below
Notebook: CO[C@H]1C[C@H](O[C@H]2[C@H](C)[C@@H](O[C@@H]3O[C@H](C)C[C@H](N(C)C)[C@H]3O)[C@@H](C)C[C@@]3(CO3)C(=O)[C@H](C)[C@@H](O)[C@@H](C)[C@@H](C)OC(=O)[C@@H]2C)O[C@@H](C)[C@@H]1O [Oleandomycin, reference compound] , MBC/MIC read as 4

Data credit: patent US4439426A
